Reported Whole Blood Stability % Remaining at 37° C. Human is given for each of the following molecules.
Assay: Whole blood stability, human
Assay type: in vitro ADME
Details: 30 min

MOLECULE	EXPERIMENTAL RESULT
C[C@H]1Cc2c([nH]c3ccc(C#N)cc23)[C@H](c2ccc(N3CCOCC3)cc2)N1C(=O)CCl	72.9%
COC(=O)[C@H]1Cc2c([nH]c3ccccc23)[C@H](c2ccc(N[C@]34CC5C[C@H](C[C@H](C5)C3)C4)cc2)N1C(=O)CCl	67.3%
COC(=O)[C@H]1Cc2c([nH]c3ccc(Br)cc23)[C@H](c2ccc(C(=O)OCC3CC3)cc2)N1C(=O)CCl	63.2%
CC[C@H]1Cc2c([nH]c3ccccc23)[C@H](c2ccc(C(=O)OC)cc2)N1C(=O)CCl	79.2%

## Input Quick one: Whole Blood Stability % Remaining at 37° C. Human for COC(=O)[C@H]1Cc2c([nH]c3ccccc23)[C@H](c2ccc(NC(C)=O)cc2)N1C(=O)CCl ?
## Output 60.9%

## Input Also COC[C@H]1Cc2c([nH]c3ccccc23)[C@@H](c2ccc(C(=O)OC(C)(C)C)cc2)N1C(=O)CCl ?
## Output 44.3%

## Input Also COC(=O)[C@H]1Cc2c([nH]c3ccccc23)[C@H](C23CC(C(=O)OC)(C2)C3)N1C(=O)CCl ?
## Output 82.4%

## Input Also COCCN(C(=O)c1ccc([C@H]2c3[nH]c4ccccc4c3C[C@H](C(=O)N(C)C)N2C(=O)CCl)cc1)C(C)(C)C ?
## Output 51.8%

## Input Also COC(=O)[C@H]1Cc2c([nH]c3ccccc23)[C@H](c2ccc(C(=O)O)cc2)N1C(=O)CCl ?
## Output 59.3%

## Input Also COC(=O)c1ccc([C@@H]2c3sc4ccccc4c3C[C@H](C(=O)OC)N2C(=O)CCl)cc1 [Example 55d] ?
## Output 60.8%

## Input Also COC(=O)[C@H]1Cc2c([nH]c3ccccc23)[C@H](c2ccc(C(=O)OCC3CCCCC3)cc2)N1C(=O)CCl ?
## Output 84.8%

## Input Also C[C@H]1Cc2c([nH]c3ccccc23)[C@@H](c2ccc(C(=O)NC34CC(C3)C4)cc2)N1C(=O)CCl ?
## Output 96.1%

## Input Also CC(=O)Nc1ccc([C@@H]2c3[nH]c4ccccc4c3C[C@H](C(=O)N(C)C)N2C(=O)CCl)cc1 [Compound 71a] ?
## Output 54.9%

## Input Also COC(=O)[C@H]1Cc2c([nH]c3ccccc23)[C@@H](c2ccc(S(=O)(=O)N(C)C)cc2)N1C(=O)CCl [Compound 23a] ?
## Output 83.2%

## Input Also C=CCOC(=O)c1ccc([C@H]2c3[nH]c4ccccc4c3C[C@H](C(=O)OC)N2C(=O)CCl)cc1 ?
## Output 58.2%

FYI, the data here is from patent US11098040B2.
